# Test system: Mycobacterium tuberculosis
# Test Summary: Antimycobacterial activity against multidrug-resistant Mycobacterium tuberculosis isolate 16995 after 7 days by microplate alamar blue assay
# Type: functional
# Condition Description: isolate 16995, 168 h
Observed Property: MIC90 (µg/mL)
API: value field is a number in µg/mL; no unit string.

[in] Lab note: record MIC90 of `O=C(c1ccc([N+](=O)[O-])o1)N1CCC(=NOCc2ccccc2)CC1` tested on Mycobacterium tuberculosis.
[out] 0.426

[in] Name the value of MIC90 reported for `CON=C1CCN(C(=O)c2ccc([N+](=O)[O-])o2)CC1` when tested on Mycobacterium tuberculosis.
[out] 1.94

[in] // output MIC90; input `CO/N=C1\CCN(C(=O)c2ccc([N+](=O)[O-])o2)C1` ; system Mycobacterium tuberculosis
[out] 1.91

[in] Find MIC90 for `O=C(c1ccc([N+](=O)[O-])o1)N1CC/C(=N\OCc2ccccc2)C1` on Mycobacterium tuberculosis and write it down.
[out] 0.38

====

# System: Mycobacterium tuberculosis
# Test Summary: Antimycobacterial activity against multidrug-resistant Mycobacterium tuberculosis isolate 16833 after 7 days by microplate alamar blue assay
# Format: functional
# Condition Description: isolate 16833, 168 h
Observed Property: MIC90 (µg/mL)
Give the value in µg/mL but do not write µg/mL after it.

[in] Recall the reported MIC90 of `O=C(c1ccc([N+](=O)[O-])o1)N1CCC(=NOCc2ccccc2)CC1` on Mycobacterium tuberculosis and write it down.
[out] 0.482

[in] Please look at `CON=C1CCN(C(=O)c2ccc([N+](=O)[O-])o2)CC1` and tell me its recorded MIC90 on Mycobacterium tuberculosis.
[out] 1.91

====

# Test system: Mycobacterium tuberculosis
# Test Summary: Antimycobacterial activity against multidrug-resistant Mycobacterium tuberculosis isolate 16833 after 7 days by microplate alamar blue assay
# Format: functional
# Condition Description: isolate 16833, 168 h
For each of the compounds below, state its MIC90.
Field: numeric (µg/mL). Do not append units.

[in] Provide one value: measured MIC90 of `O=C(c1ccc([N+](=O)[O-])o1)N1CC/C(=N\OCc2ccccc2)C1`
[out] 0.207

[in] Recall and state the measured MIC90 for `CO/N=C1\CCN(C(=O)c2ccc([N+](=O)[O-])o2)C1` .
[out] 1.93

====

# Tested on: Mycobacterium tuberculosis
# Test Summary: Antimycobacterial activity against multidrug-resistant Mycobacterium tuberculosis isolate 16995 after 7 days by microplate alamar blue assay
# Assay type: functional
# Condition Description: isolate 16995, 168 h
Record form. Attribute: MIC90. Fill in for each entry.

[in] Using known records, supply MIC90 for CO[C@H]1/C=C/O[C@@]2(C)Oc3c(C)c(O)c4c(O)c(c(/C=N/N5CCN(C)CC5)c(O)c4c3C2=O)NC(=O)/C(C)=C\C=C\[C@H](C)[C@H](O)[C@@H](C)[C@@H](O)[C@@H](C)[C@H](OC(C)=O)[C@@H]1C [RIFAMPIN]
[out] > 40 µg/mL

[in] Identify measured MIC90 corresponding to NNC(=O)c1ccncc1 [ISONIAZID]
[out] > 40 µg/mL

[in] Provide only the value of recorded MIC90 for `O=C(c1ccc([N+](=O)[O-])o1)N1CCc2ccccc21`
[out] > 4 µg/mL
